Target: T1, extracellular domain of the alpha subunit of the human FcεRI (aa 1-176), produced in baculovirus infected … (human, UniProt P12319 26-201, N-linked carbohydrate (NAG on Asn21 seen in the crystal); derivatised with PDEA for thiol coupling to the chip in the biosensor assay)
T1 construct: range 1-176; Residues 1-176 are probably counted without the signal peptide; also called FcεRIα; soluble FcεRI
T1 sequence (looked up): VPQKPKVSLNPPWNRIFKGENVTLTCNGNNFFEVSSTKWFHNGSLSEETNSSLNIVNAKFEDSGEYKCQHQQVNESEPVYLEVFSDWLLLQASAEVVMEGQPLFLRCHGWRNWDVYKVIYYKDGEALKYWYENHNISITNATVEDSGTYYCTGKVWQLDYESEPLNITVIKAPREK
Experiment: SPR biosensor (BIAcore), peptide over immobilized FcεRIα; Kd (apparent) calculated from kon and koff
Bridges are numbered along the chain shown (N, C = ends). Where no end group is shown, it is not given here.
reported-property: Kd (nM)
Expressed in nM, but write only the number.

q: Give recorded Kd. VQCPHFCYELDYELCPDVCYV-NH2 (disulfide 7-15, 3-19, also called peptide) [IGE134]
a: 32
